Data provenance is patent US4077954A.

assay: Straub tail test (Straub tail ED50), intraperitoneal, mice; design: species or system CF1S female mice; conditions: mouse, in vivo; ratio of Straub tail ED50 to analgesic ED50; read-out: ED50^ST /ED50^analgesia
measurement label: selectivity ratio
# respond with the number and nothing more

Form field selectivity ratio, entry Cc1ccc(CCN2CC[C@]3(c4cccc(O)c4)CCCC[C@H]3C2)cc1 (relative stereo) : 46

---

assay: Straub tail test (Straub tail ED50), intraperitoneal, mice; design: species or system CF1S female mice; conditions: mouse, in vivo, ip; mice, intraperitoneal, within 25 minutes after dosing; read-out: ED50^ST (Straub tail ED50)
Recorded ED50 at 25 min, one value per entry.
Number in mg/kg, nothing else.

Guide cases for ED50 at 25 min, answers given:
COc1cccc([C@@]23CCCC[C@H]2CN(CCc2ccc(C)cc2)CC3)c1 (relative stereo); 93
Cc1ccc(CCN2CC[C@]3(c4cccc(O)c4)CCCC[C@H]3C2)cc1 (relative stereo); 93

As a next step, examine the molecule that follows.
Form field ED50 at 25 min, entry Cc1ccc(CCN2CC[C@@]3(c4cccc(O)c4)CC(C)CC[C@@H]3C2)cc1 (stereo partly shown) : 135

---

experiment: in vivo; conditions: mouse, po
measurement label: selectivity ratio

Form field selectivity ratio, entry Oc1cccc([C@@]23CCCC[C@H]2CN(CCc2ccccc2)CC3)c1 (relative stereo) : ~1

---

experiment: in vivo; conditions: mouse
Where a name gives a salt, the structure may show the parent alone.
measurement label: selectivity ratio

Form field selectivity ratio, entry CC1C2Cc3ccc(O)cc3C1(C)CCN2CCc1ccccc1 (stereo not shown) [Phenzaocine hydrobromide] : ~2.5
